Where do these numbers come from? They come from ChEMBL document CHEMBL5291721.

AC50 values for the molecules below.
# Assay System: Alpha-1A adrenergic receptor (Homo sapiens, UniProt P35348); note: assay procedure not described here
# Sequence (P35348 whole entry): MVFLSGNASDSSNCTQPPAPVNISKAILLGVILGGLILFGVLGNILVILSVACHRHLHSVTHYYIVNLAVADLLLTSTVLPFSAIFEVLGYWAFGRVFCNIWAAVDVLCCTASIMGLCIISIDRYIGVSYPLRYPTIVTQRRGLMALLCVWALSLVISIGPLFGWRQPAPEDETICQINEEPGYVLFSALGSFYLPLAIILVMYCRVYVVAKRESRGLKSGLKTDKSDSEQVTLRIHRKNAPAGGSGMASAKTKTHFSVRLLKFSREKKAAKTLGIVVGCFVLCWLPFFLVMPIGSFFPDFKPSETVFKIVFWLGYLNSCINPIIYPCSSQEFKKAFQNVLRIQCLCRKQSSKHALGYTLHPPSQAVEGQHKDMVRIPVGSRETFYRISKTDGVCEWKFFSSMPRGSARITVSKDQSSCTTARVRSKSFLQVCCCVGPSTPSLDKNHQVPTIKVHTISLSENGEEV
Property Measured: AC50

{"Molecule": "COc1cccc2c1C(=O)c1c(O)c3c(c(O)c1C2=O)C[C@@](O)(C(=O)CO)C[C@@H]3O[C@H]1C[C@H](N)[C@H](O)[C@H](C)O1 [DOXORUBICIN]", "Result Value": "> 10 µM"}
{"Molecule": "C=CC1=C(C(=O)O)N2C(=O)[C@@H](NC(=O)/C(=N\\O)c3csc(N)n3)[C@H]2SC1", "Result Value": "> 10 µM"}
{"Molecule": "CCC1(CC)C(=O)NC(=O)N(C)C1=O [METHARBITAL]", "Result Value": "> 10 µM"}
{"Molecule": "C[C@]12C=CC(=O)C=C1CC[C@@H]1[C@@H]2[C@@H](O)C[C@@]2(C)[C@H]1CC[C@]2(O)C(=O)CO [PREDNISOLONE]", "Result Value": "> 10 µM"}
